In this section, each of the molecules is paired with its reported half-life.
EXPERIMENT NOTES: Half-life at a single subcutaneous administration of 40 mg/kg in mice
Type: ADME, organism-based
Parameters: dose 40 mg/kg, route subcutaneous
RUN PARAMETERS: mouse, in vivo, sc
MEASURED QUANTITY: half-life (min)

| MOLECULE | OBSERVED |
| --- | --- |
| C[C@H]1C([C@H](O)C2CC2)=C(C(=O)[O-])N2C(=O)[C@H]([C@@H](C)O)C12.[Na+] (some centres undefined) | 18.6 |
| CC(C)[C@@H](O)C1=C(C(=O)[O-])N2C(=O)[C@H]([C@@H](C)O)C2[C@H]1C.[Na+] (some centres undefined) | 41.4 |
| C[C@@H](O)[C@H]1C(=O)N2C(C(=O)O)=C(S[C@@H]3CN[C@H](C(=O)N(C)C)C3)[C@H](C)[C@H]12 [MEROPENEM] | 14.4 |
| CO[C@H]1CCC[C@H]2C1=C(C(=O)[O-])N1C(=O)[C@H]([C@@H](C)O)[C@@H]21.[Na+] [SANFETRINEM SODIUM] | 33 |

Each recorded value in this set is attributed to ChEMBL document CHEMBL1133391.
